Molecular target: mouse TGR5 receptor (Mus musculus)
Construct: host or cells: HEK293-EBNA (293 c18, ATCC CRL10852)
Sequence (Q80SS6 1-329): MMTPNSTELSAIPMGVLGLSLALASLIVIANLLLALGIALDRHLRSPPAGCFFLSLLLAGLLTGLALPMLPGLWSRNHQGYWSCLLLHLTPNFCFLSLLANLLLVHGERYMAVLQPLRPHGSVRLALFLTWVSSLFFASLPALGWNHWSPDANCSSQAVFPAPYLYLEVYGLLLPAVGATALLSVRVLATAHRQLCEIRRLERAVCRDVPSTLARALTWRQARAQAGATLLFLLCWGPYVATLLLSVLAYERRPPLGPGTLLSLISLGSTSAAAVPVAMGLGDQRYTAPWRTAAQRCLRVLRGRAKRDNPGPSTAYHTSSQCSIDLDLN
Assay: Mouse TGR5 HTRF cAMP production assay (HEK293-EBNA cells, Cisbio cAMP HiRange kit)
Format: cell-based
Settings: HEK293-EBNA cells overexpressing mouse TGR5, HTRF cAMP assay
pEC50: −log10 of the molar value.
Observed Property: pEC50

Consider the following illustrative entries.
>  <Smiles String>
COC(=O)[C@H](CCC[N+](C)(C)C)NC(=O)CCCC1CCN(c2cc(N3CCC[C@H]3C(=O)NCCc3ccc(C#N)cc3)nc(C(F)(F)F)n2)CC1

>  <Measurement Target>
mouse TGR5 receptor (Mus musculus)

>  <Value Reported>
> 7.00

$$$$
>  <Smiles String>
CC1(CO)CCN(C(=O)NCCC2CCN(c3cc(N4CCC[C@H]4C(=O)NCCc4ccc(C#N)cc4)nc(C(F)(F)F)n3)CC2)CC1

>  <Measurement Target>
mouse TGR5 receptor (Mus musculus)

>  <Value Reported>
> 7.00

$$$$
>  <Smiles String>
CN(C)CCN1CCN(c2cc(N3CCC[C@H]3C(=O)NCCc3ccc(C#N)cc3)nc(C(F)(F)F)n2)CC1

>  <Measurement Target>
mouse TGR5 receptor (Mus musculus)

>  <Value Reported>
6.00 to 7.00

$$$$
>  <Smiles String>
N#Cc1ccc(CCNC(=O)[C@@H]2CCCN(c3cc(N4CCN(CCn5ccnc5)CC4)nc(C(F)(F)F)n3)C2)cc1

>  <Measurement Target>
mouse TGR5 receptor (Mus musculus)

>  <Value Reported>
> 7.00

$$$$
>  <Smiles String>
N#Cc1ccc(CCNC(=O)[C@@H]2CCN2c2cc(N3CCC(CCCC(=O)NCP(=O)(O)O)CC3)nc(C(F)(F)F)n2)cc1

>  <Measurement Target>
mouse TGR5 receptor (Mus musculus)

>  <Value Reported>
> 7.00

$$$$

Req: Find the measured pEC50 of N#Cc1ccc(CCNC(=O)[C@@H]2CCCN2c2cc(N3CCC(CCCC(=O)NCCOCCOCCNC(=N)N)CC3)nc(C(F)(F)F)n2)cc1 and report it.
Resp: > 7.00

###

test: Comparison of PK in DIO mice and lean mice; assay type: in vivo, mouse; conditions: C57BL/6N, mouse, plasma, po, 10 mg/kg, Non-fasted DIO mice, oral (Table 58); read-out: AUC (0→4 h)
Observed Property: AUC(0-t)
# include the unit after the value

Req: For the compound N#Cc1ccc(CCNC(=O)[C@@H]2CCN2c2cc(N3CCC(CCNC(=O)NCCC(=O)O)CC3)nc(C(F)(F)F)n2)cc1 [Compound 268] , give its reported AUC(0-t).
Resp: 0.76 ng·h/mL
